src = ChEMBL document CHEMBL5726298

Tested Target: GMP-stimulated 3',5'-cyclic nucleotide phosphodiesterase (Macaca mulatta, UniProt B3VTJ2)
Sequence (B3VTJ2 whole entry): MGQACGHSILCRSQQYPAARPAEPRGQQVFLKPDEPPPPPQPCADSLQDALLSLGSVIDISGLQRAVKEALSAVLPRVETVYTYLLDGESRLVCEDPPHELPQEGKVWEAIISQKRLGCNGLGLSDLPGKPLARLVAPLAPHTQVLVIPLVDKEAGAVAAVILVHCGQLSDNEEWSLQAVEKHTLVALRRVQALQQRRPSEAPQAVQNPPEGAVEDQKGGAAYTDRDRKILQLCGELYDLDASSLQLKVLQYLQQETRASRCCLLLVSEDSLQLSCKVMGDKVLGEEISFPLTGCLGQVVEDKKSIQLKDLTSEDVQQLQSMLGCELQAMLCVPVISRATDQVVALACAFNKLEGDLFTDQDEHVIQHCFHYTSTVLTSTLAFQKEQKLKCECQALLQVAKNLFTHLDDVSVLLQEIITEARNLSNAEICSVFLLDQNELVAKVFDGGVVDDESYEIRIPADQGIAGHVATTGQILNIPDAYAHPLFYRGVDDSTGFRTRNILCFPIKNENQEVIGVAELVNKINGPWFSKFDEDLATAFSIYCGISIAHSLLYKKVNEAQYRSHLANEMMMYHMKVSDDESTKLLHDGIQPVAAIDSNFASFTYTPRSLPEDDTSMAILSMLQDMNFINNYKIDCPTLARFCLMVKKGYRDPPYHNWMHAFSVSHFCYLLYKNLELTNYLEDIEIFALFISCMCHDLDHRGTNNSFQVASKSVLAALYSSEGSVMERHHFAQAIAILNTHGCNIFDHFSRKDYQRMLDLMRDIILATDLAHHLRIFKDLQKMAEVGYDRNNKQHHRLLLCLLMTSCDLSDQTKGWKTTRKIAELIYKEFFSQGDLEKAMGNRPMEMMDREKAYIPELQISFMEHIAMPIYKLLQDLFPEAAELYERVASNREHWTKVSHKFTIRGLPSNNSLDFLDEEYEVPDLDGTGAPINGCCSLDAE
Protocol Text: PDE2A3 assay: The activity of the compounds in accordance with the present invention as PDE2 inhibitors may be readily determined using a fluorescence polarization (FP) methodology (Huang, W., et al., J. Biomol Screen, 2002, 7: 215). […] Done in Lab A for rhPDE2A3.
Reported Endpoint: Ki (µM)
All answers are understood in µM, so give the number only.

GET /values?readout=Ki&item= Cc1nc(-c2csc(C(C)c3ccc(C(F)(F)F)cc3)n2)cc(=O)[nH]1 (stereo unspecified)
1.24
